# measured.target: Epidermal growth factor receptor (Homo sapiens)
# assay.comment: EGFR binders on small-molecule microarrays, primary screen, biochemical, small-molecule microarray, 635 nm fluorescence (AID 1104);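 note: score merges 667 nm emission intensity with spot signal to noise over triplicate slides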
# experimental.conditions: EGFR binding, higher = more signal
measured.property: composite z-score
One number for each entry.

Here are 3 compounds together with their reported answers.
Identify measured composite z-score obtained with Epidermal growth factor receptor (Homo sapiens) for COC(=O)[C@@]1(Cc2ccccc2)N=C(c2ccc(OCCCO)cc2)O[C@H]1c1ccccc1 . -1.08

Check Epidermal growth factor receptor (Homo sapiens) data and give composite z-score for O=C(NCCO)C1=C[C@H](Oc2ccccc2I)[C@@H](O)[C@H](N(Cc2ccco2)C(=O)Cc2ccccc2)C1 . 0.508

Report composite z-score on Epidermal growth factor receptor (Homo sapiens) for this entry: C=CCOC(=O)[C@H]1[C@@H]2C(=O)O[C@@H](c3ccccc3)[C@@H](c3ccccc3)N2[C@@H](c2ccc(OCCOC(=O)[C@H]3C[C@H]4C(=O)N[C@@H](CCCCN(C)C)C(=O)N4[C@H]3c3ccc(O)cc3)cc2)[C@]12C(=O)Nc1ccc(I)cc12 0.741

Report composite z-score for each item below.
1. CN1C(=O)C2C=CC(C(O)c3ccccc3)N(N(c3ccccc3)c3ccccc3)C2C1=O (stereo not drawn)
2. C=CCOC(=O)[C@H]1[C@@H]2C(=O)O[C@@H](c3ccccc3)[C@@H](c3ccccc3)N2[C@@H](c2ccc(OCCOC(=O)[C@@H]3C[C@@H]4C(=O)N[C@@H](CCCCNC(C)=O)C(=O)N4[C@@H]3c3ccc(O)cc3)cc2)[C@]12C(=O)Nc1ccccc12
3. CCC[C@@H]1C[C@@]1(CCC)[C@@H](NC(=O)c1ccccc1)c1cccc(Cl)c1
4. CC(C)C(CO)N1C(=O)[C@@H]2C3C(=O)OCCC/C=C\[C@H]3OC23C=CCN(CCN2CCOCC2)C(=O)[C@@H]13 (stereo partly drawn)
5. NC(=O)NCC#Cc1ccc2c(c1)[C@]1(C(=O)N2)[C@H](C(=O)Nc2nc3ccccc3s2)[C@H]2C(=O)O[C@H](c3ccccc3)[C@H](c3ccccc3)N2[C@@H]1c1ccccc1OCCO
6. NC(=O)NCC#Cc1ccc2c(c1)[C@]1(C(=O)N2)[C@H](c2ccc(O)cc2)N2[C@H](c3ccccc3)[C@H](c3ccccc3)OC(=O)[C@H]2[C@@H]1C(=O)O
7. CC1(C)[C@@H]2CC(C(O)C3C=CC4C(=O)N(Cc5ccccc5)C(=O)C4N3n3cnnc3)=C[C@H]1C2 (stereo partly drawn)

0.142
0.673
0.446
-0.203
0.997
-0.683
0.0902

Record composite z-score per entry; entries follow.
1. COCCOC(=O)N1C(=O)[C@@]2(c3cc(C#CCCO)ccc31)[C@H](C(=O)N1CCCCCCC1)[C@H]1C(=O)O[C@H](c3ccccc3)[C@H](c3ccccc3)N1[C@@H]2c1ccc(OCCO)cc1
2. COc1cc(COC(C)=O)ccc1OC(C)=O

1.59
1.04

Answer with composite z-score of C=CCC(OC(C)=O)[C@@H]1[C@@H](N(Cc2ccc(-c3ccccc3)cc2)C(=O)c2ccc(-c3ccccc3)cc2)c2cc(OCCCO)ccc2N1C(=O)Cc1ccc2ccccc2c1 (stereo partly drawn) measured for Epidermal growth factor receptor (Homo sapiens). 0.0825

----------
# measured.target: Fibroblast growth factor 2 (Homo sapiens) (UniProt P09038)
# Sequence (P09038 whole entry, looked up): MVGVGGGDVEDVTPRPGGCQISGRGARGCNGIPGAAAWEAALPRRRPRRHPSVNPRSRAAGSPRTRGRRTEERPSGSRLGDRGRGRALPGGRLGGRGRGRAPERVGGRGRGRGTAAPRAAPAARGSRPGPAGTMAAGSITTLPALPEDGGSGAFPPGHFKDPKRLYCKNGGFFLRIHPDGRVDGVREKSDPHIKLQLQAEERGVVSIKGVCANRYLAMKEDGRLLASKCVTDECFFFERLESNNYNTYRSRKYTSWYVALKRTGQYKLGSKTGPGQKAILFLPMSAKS
# assay.comment: FGF2 binders on small-molecule microarrays, primary screen, biochemical, small-molecule microarray, 635/667 nm fluorescence (AID 1133)
# experimental.conditions: small-molecule microarray binding, FGF2, fluorescence 635/667; higher = more signal
measured.property: composite z-score
One number for each entry.

The cases that follow already have their composite z-score on record.
# assay system Fibroblast growth factor 2 (Homo sapiens) (UniProt P09038): give composite z-score of C=CCC(OC(C)=O)[C@@H]1[C@@H](N(Cc2cc3ccccc3o2)C(=O)c2cccc3ccccc23)c2cc(OCCCO)ccc2N1C(=O)c1ccc(-c2ccccc2)cc1 (stereo partly drawn) 0.401

Please respond with reported composite z-score (system Fibroblast growth factor 2 (Homo sapiens) (UniProt P09038)) for Oc1ccc2cc[n+](Cc3sc4ccccc4c3Cl)cc2c1 . 0.567

Please respond with reported composite z-score (system Fibroblast growth factor 2 (Homo sapiens) (UniProt P09038)) for COC(=O)[C@@]1(Cc2ccccc2)[C@H]2c3cc(C(=O)N(C)C)n(Cc4ccsc4Br)c3C[C@H]2CN1C(=O)c1ccccc1 . -0.535

Report measured composite z-score on Fibroblast growth factor 2 (Homo sapiens) (UniProt P09038); entry: CC1(C)[C@@H]2CC(C(O)C3C=CC4C(=O)N(c5ccccc5)C(=O)C4N3Nc3ccc([N+](=O)[O-])cc3)=C[C@H]1C2 (stereo partly drawn) 0.488

For each entry beneath this line, provide reported composite z-score.
1. C=CC1(C(=O)OC)CC=C(C(=O)OC)CC1 (stereo not drawn)
2. CC(C)C(=C=CC[C@H](O)c1ccc(OCCO)cc1)CCO
3. C=C[C@H](CO[Si](CC)(CC)CC)N(Cc1ccc(OC(C)=O)c(OC)c1)S(=O)(=O)c1ccc(Br)cc1
4. CO[C@H]1O[C@H](CO)[C@@H](OC(=O)Nc2cccc(F)c2)[C@H](OC(=O)Nc2ccccc2)[C@@H]1OC(=O)Nc1ccccc1

[0.653, 1.05, 0.913, 0.843]

----------
# assay.comment: E. coli growth modulation, two-sided OD650, primary screen, E. coli filamentation project, strain DRC41, 24 h (AID 1093);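 note: MC1000 strain lacking acrAB efflux and sulA so SOS filamentation is blocked; test concentration not given here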
# experimental.conditions: OD650, 24 h, higher = more signal, called active from +8 up or from −8 down
measured.property: z-score
Answers are plain numbers.

Name the recorded z-score of the item COC(=O)[C@@]1(Cc2ccc(OC)cc2)[C@H]2c3cc(C(=O)N(C)C)n(Cc4ccc(S(C)(=O)=O)cc4)c3C[C@H]2CN1C(=O)c1ccccc1 in your answer. 0.0416

Indicate its recorded z-score; the molecule in question is C=C(C)[C@@H]1CC=C(C(O)C2C=CC3C(=O)N(C)C(=O)C3N2Nc2ccccc2)CC1 (stereo not given in full) -1.03

Specify reported z-score for the molecule shown: C=CC(=C)[C@H]1Oc2ccccc2S(=O)(=O)N2CCC[C@@H]12 -0.504

Output measured z-score for this item: O=C1c2ccccc2[C@](Cc2ccccc2I)(C(=O)NCC(F)(F)F)[C@H](c2ccc(CO)cc2)N1Cc1ccccc1Cl -0.267

State its z-score: Cc1ccc(S[C@]2(C(=O)NCCCN(C)C)CC(=O)N(Cc3ccccc3C(F)(F)F)[C@@H]2c2ccc(CO)cc2)cc1 0.783

I'm hoping you can list z-score for every molecule here, please.
1. O=C1C[C@@](C(=O)NCCN2CCOCC2)(c2ccc([N+](=O)[O-])cc2)[C@@H](c2ccc(CO)cc2)N1CC12CC3CC(CC(C3)C1)C2
2. CC(C)[Si]1(C(C)C)O[C@@H](c2ccccc2)c2cc(-c3ccc(-c4ccc(Cl)c(Cl)c4)o3)nc(-c3ccccc3)c21

1: -2.26; 2: -1.22

// for each molecule below, give its z-score
1. CC(C)N1C(=O)c2ccccc2[C@](C)(C(=O)NCCN2CCOCC2)[C@@H]1c1ccc(CO)cc1
2. CC(C)C(=C=CC[C@@H](O)c1ccc(OCCO)cc1)C[C@@H](O)COCc1ccccc1
3. C=CC[C@]1(C(=O)NCc2ccccc2)N=C(c2ccc(OCCCO)cc2)O[C@H]1c1ccccc1N=[N+]=[N-]
4. CC1CC/C=C\[C@H]2OC34C=CCN(C(C)(C)C)C(=O)[C@H]3N(C(C)CO)C(=O)[C@@H]4C2C(=O)O1 (stereo not given in full)

[-0.487, 1.14, 0.73, -0.434]

State the recorded z-score for every item in the following list.
1. O=C1[C@@]23C=C(Br)[C@H](C[C@@H]2CCOC3)[C@@]12CO2
2. C=CCOC(=O)[C@H]1[C@@H]2C(=O)O[C@@H](c3ccccc3)[C@@H](c3ccccc3)N2[C@@H](c2ccc(OCCOC(=O)[C@H]3C[C@H]4C(=O)N[C@@H](CCCCNC(C)=O)C(=O)N4[C@H]3c3cccc(OCCO)c3)cc2)[C@]12C(=O)Nc1ccccc12
3. CCCCCCc1nc(-c2ccc(OC)nc2)cc2c1[Si](C(C)C)(C(C)C)O[C@H]2c1ccccc1
4. CCOC(=O)C[C@H]1[C@H](OC(=O)c2ccccc2-c2ccccc2)[C@@H](NC(=O)CC(C)C)c2cc(OCCCO)ccc2N1C(=O)Cc1ccc(OC)cc1

1: -0.0015; 2: 0.272; 3: -0.995; 4: -0.853

----------
Give measured z-score for each item. Keep answers brief.
# measured.target: NADPH oxidase 2 (Homo sapiens)
# assay.comment: NOX2-dependent H2O2 signal modulators, primary screen, NOX inhibitor project, cell-based, HEK293-NOX2, PMA-stimulated, Amplex Red fluorescence (AID 1159); note: test concentration not given here
# experimental.conditions: 45 min, higher = more signal, called active from +8 up or from −8 down
Numbers only.

Some solved entries appear below for comparison.
Report z-score, nothing else, for this compound: COC(=O)[C@@]1(Cc2ccc(F)cc2)[C@H]2c3cc(C(=O)N4CCCC4)n(Cc4ccc(S(C)(=O)=O)cc4)c3C[C@H]2CN1C(=O)c1ccccc1 0.949

Name the recorded z-score of the compound listed here: CC(C)OC(=O)C=C1C[C@@H](c2ccccn2)O[C@@H](c2ccccn2)O1 -0.223

Give z-score for C[C@@]1([C@@H](NC(=O)c2ccc(-c3ccccc3)cc2)c2ccc(Cl)cc2)C[C@H]1C1CCCCC1 -0.75

Write down z-score measured for item COCCOC(=O)N1C(=O)[C@@]2(c3cc(C#CCCO)ccc31)[C@H](C(=O)N1CCCCCCC1)[C@H]1C(=O)O[C@H](c3ccccc3)[C@H](c3ccccc3)N1[C@@H]2c1ccc(OCCO)cc1 0.931

Give z-score for O=C1C[C@@](C(=O)NCC(F)(F)F)(c2ccc([N+](=O)[O-])cc2)[C@@H](c2ccc(CO)cc2I)N1C1CCCCC1 0.979

Dear colleague, could you please provide z-score for the compounds listed below?
1. COc1cc(NN2C(C(O)c3ccco3)C=CC3C(=O)N(c4ccccc4)C(=O)C32)cc(OC)c1OC (centres undefined)
2. C=C(COC)/C(=C/C[C@@H](OC(=O)c1ccncc1)c1ccc(CO)o1)c1cc(C(=O)OC)ccc1OC
3. COCCOC(=O)N1C(=O)[C@@]2(c3cc(C#CCC(C(=O)OC)C(=O)OC)ccc31)[C@H](C(=O)Nc1nc3ccccc3s1)[C@H]1C(=O)O[C@H](c3ccccc3)[C@H](c3ccccc3)N1[C@@H]2c1ccccc1OCCO
4. COC(=O)[C@H](Cc1ccccc1)N1CC2=C[C@@H](C3CC3)n3c(=O)n(C)c(=O)n3[C@H]2[C@@H]1[C@@H](O)Cc1ccccc1
5. CCCCCCc1nc(-c2cc(C)c(OC)c(C)c2)cc2c1[Si](C(C)C)(C(C)C)OC2
6. CCCC[C@H]1OB(O)C[C@H]2C1=C(COC)C[C@H]1C(=O)N(C)C(=O)[C@H]12
7. CO[C@H]1O[C@H](CO)[C@@H](OC(=O)Nc2ccccc2)[C@H](OC(=O)Nc2ccccc2)[C@@H]1OC(=O)Nc1ccccc1
8. COc1cc2c(cc1OC)CN(C(=O)[C@@H]1[C@H]3C(=O)O[C@H](c4ccccc4)[C@H](c4ccccc4)N3[C@H](c3ccc(O)cc3)[C@@]13C(=O)Nc1ccccc13)CC2

-3.15
-0.631
0.652
-0.813
-5.61
-0.251
-3.38
0.00476

Read off the recorded z-score for COC(=O)[C@@]1(Cc2ccc(OC)cc2)[C@H]2c3cc(C(=O)N(C)C)n(Cc4ccc(S(C)(=O)=O)cc4)c3C[C@H]2CN1C(=O)c1ccccc1 1.04
